Reference source for all entries: patent US20110195979A1

# Tested on: Influenza H1N1 virus
# assay-name: Viral cytopathic effect (CPE) assay
# Type: cell-based, Influenza A (H1N1)
# measurement-context: Influenza A virus, H1N1, MDCK, 72 h, read-out: CPE_EC50
result-type: EC50 (nM)
Give bare numbers, in nM.

CC1(C)CC(O)CC(C)(C(=O)Nc2cc(Cl)cc(C(F)(F)F)c2)C1 (centres unmarked) [Example IVa-14]: 19
CC1(C)CC(O)CC(C)(CNc2nccc(C(F)(F)F)n2)C1 (centres unmarked) [Example IIIa-10]: 120

// each listed molecule needs a value for EC50
1. COc1cccc(NCC2(C)CC(O)CC(C)(C)C2)c1 (centres unmarked) [Example IIa-8]
2. CC1(C)CC(F)(F)CC(C)(CNc2cc(F)cc(C(F)(F)F)c2)C1 (centres unmarked) [Example IIe-1]
3. Cc1cc(C)nc(NCC2(C)CC(O)CC(C)(C)C2)n1 (centres unmarked) [Example IIIa-13]
4. CC1(C)CC(O)CC(C)(CNc2cc(F)cc(C#N)c2)C1 (centres unmarked) [Example IIa-22]
5. CC1(C)CC(O)CC(C)(C(=O)Nc2cccc(S(N)(=O)=O)c2)C1 (centres unmarked) [Example IVa-10]

1. 200
2. 264
3. 1370
4. 50
5. 7960

----------
Kindly state EC50 for each of the entries shown.
# Test system: Influenza H1N1 virus
# assay-name: Viral cytopathic effect (CPE) assay
# Type: cell-based, Influenza A (H1N1)
# measurement-context: Influenza A virus, H1N1, MDCK, 72 h, read-out: CPE_EC50

Count: 3. Required value per item: EC50.
1. CC1(C)CC(O)CC(C)(C(=O)Nc2ccc(Cl)c(Cl)c2)C1 (stereo not drawn)
2. CC(=O)NC1CC(C)(C)CC(C)(C(=O)Nc2cccc(Cl)c2)C1 (stereo not drawn)
3. CC1(C)CC(O)CC(C)(CNc2ccc(Cl)c(C#N)c2)C1 (stereo not drawn)

627 nM
4610 nM
140 nM

----------
# Test system: Influenza H1N1 virus
# assay-name: Viral cytopathic effect (CPE) assay
# Assay type: cell-based, Influenza A (H1N1)
# measurement-context: Influenza A virus, H1N1, MDCK, 72 h, read-out: CPE_EC50
pEC50: −log10 of the molar value.
Quick rule for you: pEC50 at 6 or higher means YES, lower means NO.

// below: answered compounds
CC1(C)CC(O)CC(C)(CNc2cc(C(F)(F)F)cc(C(F)(F)F)c2)C1 (stereo not drawn): YES
CC1(C)CC(O)CC(C)(C(=O)Nc2cc(Br)cc(C(F)(F)F)c2)C1 (stereo not drawn): YES
CC1(C)CC(C)(O)CC(C)(CNc2cc(F)cc(C(F)(F)F)c2)C1 (stereo not drawn): YES
CC1(C)CC(O)CC(C)(CNc2cncc(Cl)n2)C1 (stereo not drawn): NO
CC1(C)CC(O)CC(C)(C(=O)Nc2cc(F)cc(F)c2)C1 (stereo not drawn): YES
CC1(C)CC(O)CC(C)(CNc2nccc3ccccc23)C1 (stereo not drawn): NO

Next compound, please.
Quick check, pEC50 >= 6? CC1(C)CC(O)CC(C)(C(=O)Nc2cccc(C(F)(F)F)c2)C1 (stereo not drawn) YES

----------
# System: Influenza H1N1 virus
# assay-name: Viral cytopathic effect (CPE) assay
# Type: cell-based, Influenza A (H1N1)
# measurement-context: Influenza A virus, H1N1, MDCK, 72 h, read-out: CPE_EC50
Mark criterion met for EC50 under 0.1 µM, criterion not met if at or over.

CC1(C)CC(O)CC(C)(CNc2cc(Cl)cc(Cl)c2)C1 (centres unmarked): criterion met

Is EC50 strictly under 0.1 µM for the entry CC1(C)CC(O)CC(C)(C(=O)Nc2cccc(OC(F)(F)F)c2)C1 (centres unmarked) ? criterion not met

EC50 strictly < 0.1 µM for this compound? COC1CC(C)(C)CC(C)(CNc2cc(F)cc(C(F)(F)F)c2)C1 (centres unmarked) criterion not met

Is 0.1 µM strictly greater than the compound's reported EC50? compound: CC1(C)CCCC(C)(CNc2cc(F)cc(C(F)(F)F)c2)C1 (centres unmarked) criterion not met

Regarding COc1ccnc(NCC2(C)CC(O)CC(C)(C)C2)n1 (centres unmarked) , kindly confirm whether its EC50 is beneath 0.1 µM. criterion not met

For this compound, is EC50 lower than 0.1 µM? CC1(C)CC(O)CC(C)(CNc2ccc(C#N)c(C(F)(F)F)c2)C1 (centres unmarked) criterion met

----------
# System: Influenza H1N1 virus
# assay-name: Viral cytopathic effect (CPE) assay
# Assay type: cell-based, Influenza A (H1N1)
# measurement-context: Influenza A virus, H1N1, MDCK, 72 h, read-out: CPE_EC50
Assignment: determine reported pEC50 for the given compounds.
Answers are plain numbers, as −log10 of the molar value.

Field: example entries. Status: answers known.
CC1(C)CC(O)CC(C)(C(=O)Nc2ccc(Cl)c(F)c2)C1 (centres unmarked) [Example IVa-19]: 5.74
CC1(C)CC(NS(C)(=O)=O)CC(C)(C(=O)Nc2cccc(Cl)c2)C1 (centres unmarked) [Example IVb-4]: 5.56
CC1(C)CC(F)(F)CC(C)(CNc2nc3ccccc3o2)C1 (centres unmarked) [Example IIIc-2]: 5.47

Please go through the list and note pEC50 for each compound.
1. CC1(C)CC(O)CC(C)(CNc2cc(F)cc(C(F)(F)F)c2)C1 (centres unmarked) [Example IIa-17]
2. CC1(C)CC(O)CC(C)(CNc2cc(C#N)cc(C(F)(F)F)c2)C1 (centres unmarked) [Example IIa-24]
3. CC1(C)CC(O)CC(C)(CNc2nc3ccccc3o2)C1 (centres unmarked) [Example IIIc-1]

[7.74, 7.40, 5.85]

Field: pEC50. Fill in for each record below.
1. CC(C)c1cccc(NC(=O)C2(C)CC(O)CC(C)(C)C2)c1 (centres unmarked) [Example IVa-5]
2. CN(CC1(C)CC(O)CC(C)(C)C1)c1cccc(Cl)c1 (centres unmarked) [Example IIb-1]

1. 5.98
2. 6.22

# map each compound to its pEC50
1. CC1(C)CC(O)CC(C)(C(=O)Nc2ccc(F)c(C(F)(F)F)c2)C1 (centres unmarked) [Example IVa-21]
2. CC(=O)OC1CC(C)(C)CC(C)(CNc2ccccc2)C1 (centres unmarked) [Example IId-1]

6.34
6.31

Below are 6 compounds. Give each one its pEC50.
1. CC1(C)CC(O)CC(C)(C(=O)Nc2cccc(Cl)c2)C1 (centres unmarked) [Example IVa-3]
2. CC1(C)CC(O)CC(C)(CNc2ccc(C#N)c(Cl)c2)C1 (centres unmarked) [Example IIa-29]
3. CC1(C)CC(O)CC(C)(CNc2cc(Br)cc(C(F)(F)F)c2)C1 (centres unmarked) [Example IIa-21]
4. COC1CC(C)(C)CC(C)(CNc2nc3ccccc3o2)C1 (centres unmarked) [Example IIIc-3]
5. COc1cc(NC(=O)C2(C)CC(O)CC(C)(C)C2)cc(C(F)(F)F)c1 (centres unmarked) [Example IVa-16]
6. CC1(C)CC(O)CC(C)(CNc2noc3ccccc23)C1 (centres unmarked) [Example IIId-1]

1: 6.34; 2: 6.74; 3: 7.24; 4: 5.13; 5: 7.22; 6: 6.40
